apparent KD of MS2 coat protein for assorted sequences
tested on: MS2 coat protein; test: apparent KD of MS2 coat protein; higher = weaker reporter binding; settings: Eterna round: R101; input ligand: FMN 200 uM
Please state the figure in nM; there is no need to write the unit.

Reference set (3 entries):
GGAGACCUUACAGGAUAUGCUGGACUUUGUCCAGCAGAAGGGUGAAUACAUGAGGAUCACCCAUGUAUGGUCUCCAAAUUUAAU [jl-ssng1-3.05 #GC_VS_GU_SWITCHING] (puzzle (switch architecture): Same State NG 1) = 121
GGAGGAGGAUAAGGAUAUAACAUGAGGAUCACCCAUGUGGAGGAGGAGGAGGAGGAGGAGGAGGGUUAGAAGGUAUGGAGGAGG [First attempt] (puzzle (switch architecture): Exclusion NG 2) = 11
AGAAACUACGAGAAGGACAUGUGGUCCUUCAAAAAAAUGAGGAUCACCCAUGUAGGAUAUCGUAGUUUCAGGAUCGUGAGAUCA [salish99_ISLExNG1_x101 #HINGE] (puzzle (switch architecture): Inverted Small Loop Exclusion NG 1) = 9.58

Problem: # lookup: apparent KD of MS2 coat protein of AAUAAACAAUAAAAGAGUCCACGAAACUUCUGAGGAUCACCCAGAAGGGCUGAGGUAAUACCUCAGCAGGAUAUGGACGUGGAC [#SharedSequence IExNG# - 1] (puzzle (switch architecture): Inverted Exclusion NG 3)
Solution: 5.09

Problem: Now consider CGCUAUGAUGGUUGUAAUAGAGCAUAGGAUAUGCUUGUACAUGAGGAUCACCCAUGUUAUAUUUUGCAGAAGGGUGCAUUUGCG [JR #DistanceFar #Hairpin #NP SLSSNG3 Sub073] (puzzle (switch architecture): Small Loop Same State NG 3) and answer again.
Solution: 30.1

Problem: Another sequence: AAAAAUUCUUAAGGAUAUGACUCCGAAACGGAGUCAGAAGGUGAGGAUCACCCACCUAGCUCAGCGUCGAAAGACGCUGAGCAA [#SharedSequence ExNG1 - 28] (puzzle (switch architecture): Exclusion NG 1)
Solution: 12

Problem: What do you have for AAUAAAACUCAAGGAUAUCAGUGGCAAAGCCACUGAGAAGGUGAGGAUCACCCACCUACGUGACGCUGGAAACAGCGUCACGAA [#SharedSequence ExNG1 - 33] (puzzle (switch architecture): Exclusion NG 1) ?
Solution: 36.3

Problem: // query: GGGUACAUCGGAGGAUAUCAUGUAAAUACAUGAGGAUCACCCAUGUCGAUGGAGACAUAGGAGAUUGAGAAGGCCGAUGUACCG (puzzle (switch architecture): Same State NG 2)
Solution: 144

Problem: Now this one: CUAUUAUAUGUAGGAUAUGCAUAUUAUUAUUGUGCAGAAGGACAUGAGGAUCACCCAUGUAUAUUAUUAUUAUAUAUUAUAUAU (puzzle (switch architecture): Exclusion NG 1)
Solution: 11.8
